- Tested on: human sputum elastase-induced lung hemorrhage in hamsters
- assay: Elastase-induced lung hemorrhage (hemoglobin in BAL cells, OD 541 nm)
- Format: in vivo, hamster
- measurement setup: 1 μg/site intratracheal, 5 min before elastase; BAL 3 h later
Numbered stars: 1 amine (or outer) side, 2 acyl side, 3 side chain; on linkers, the order of the positions; unused ones are H or OH. Square brackets hold non-standard residues; d marks the D form. Peptide text beside a SMILES is read from it. * marks the point of attachment. ξ: configuration not given here. 4Abz = Nc1ccc(C(=O)O)cc1; CO = O=C([*:1])[*:2]; ξV = CC(C)C(N)C(=O)O; CF3 = FC(F)(F)*
The following molecules are shown together with reported Hemorrhage (OD541nm) values.
Numeric only. Scale: OD541nm

Incoming: For CC(C)C(NC(=O)[C@@H]1CCCN1C(=O)[C@@H](NC(=O)c1ccc(C(=O)NCCN2CCOCC2)cc1)C(C)C)C(=O)C(F)(F)F.Cl (stereo partly shown) , write its Hemorrhage (OD541nm).
Outgoing: 12.76

Incoming: Return the recorded Hemorrhage (OD541nm) value; entry: CC(C)C(NC(=O)CN(C(=O)[C@@H](NC(=O)c1ccc(C(=O)NCC(=O)[O-])cc1)C(C)C)C1Cc2ccccc2C1)C(=O)C(F)(F)F.[Na+] (stereo partly shown)
Outgoing: 10.68

Incoming: Return Hemorrhage (OD541nm) for the following molecule: CC(C)C(NC(=O)CN(C(=O)[C@@H](NC(=O)c1ccc(C(=O)NCCN2CCOCC2)cc1)C(C)C)C1Cc2ccccc2C1)C(=O)C(F)(F)F.Cl (stereo partly shown)
Outgoing: 12.05

Incoming: Report Hemorrhage (OD541nm) for CC(C)C(NC(=O)[C@@H]1CCCN1C(=O)[C@@H](NC(=O)Nc1ccc(C(=O)NCC(=O)O)cc1)C(C)C)C(=O)C(F)(F)F (stereo partly drawn) [实施例23] ({Gly-4Abz-CO}-Val-Pro-[ξV]-CF3)
Outgoing: 9.435

====

A collection of compounds and their measured % inhibition of lung hemorrhage
- System: human sputum elastase-induced lung hemorrhage in hamsters
- assay: Elastase-induced lung hemorrhage (hemoglobin in BAL cells, OD 541 nm)
- Type: in vivo, hamster
- measurement setup: 1 μg/site intratracheal, 5 min before elastase
Numbered stars: 1 amine (or outer) side, 2 acyl side, 3 side chain; on linkers, the order of the positions; unused ones are H or OH. Square brackets hold non-standard residues; d marks the D form. Peptide text beside a SMILES is read from it. * marks the point of attachment. ξ: configuration not given here. 4Abz = Nc1ccc(C(=O)O)cc1; CO = O=C([*:1])[*:2]; ξV = CC(C)C(N)C(=O)O; CF3 = FC(F)(F)*
Could you give me the number in %? Just the number is fine.

compound | target or system | % inhibition of lung hemorrhage [%]
CC(C)C(NC(=O)[C@@H]1CCCN1C(=O)[C@@H](NC(=O)c1ccc(C(=O)NCCN2CCOCC2)cc1)C(C)C)C(=O)C(F)(F)F.Cl (stereo partly shown) [实施例21] | human sputum elastase-induced lung hemorrhage in hamsters | 13.6
CC(C)C(NC(=O)CN(C(=O)[C@@H](NC(=O)c1ccc(C(=O)NCC(=O)[O-])cc1)C(C)C)C1Cc2ccccc2C1)C(=O)C(F)(F)F.[Na+] (stereo partly shown) [实施例27] | human sputum elastase-induced lung hemorrhage in hamsters | 24.8
CC(C)C(NC(=O)CN(C(=O)[C@@H](NC(=O)c1ccc(C(=O)NCCN2CCOCC2)cc1)C(C)C)C1Cc2ccccc2C1)C(=O)C(F)(F)F.Cl (stereo partly shown) [实施例29] | human sputum elastase-induced lung hemorrhage in hamsters | 14.9

Then there is this compound:
Incoming: // fetch % inhibition of lung hemorrhage given entry CC(C)C(NC(=O)[C@@H]1CCCN1C(=O)[C@@H](NC(=O)Nc1ccc(C(=O)NCC(=O)O)cc1)C(C)C)C(=O)C(F)(F)F (stereo partly drawn) [实施例23] ({Gly-4Abz-CO}-Val-Pro-[ξV]-CF3)
Outgoing: 16.0

====

- Tested on: human sputum elastase-induced lung hemorrhage in hamsters
- assay: Elastase-induced lung hemorrhage (hemoglobin in BAL cells, OD 541 nm)
- Format: in vivo, hamster
- measurement setup: 10 μg/site intratracheal, 5 min before elastase
Numbered stars: 1 amine (or outer) side, 2 acyl side, 3 side chain; on linkers, the order of the positions; unused ones are H or OH. Square brackets hold non-standard residues; d marks the D form. Peptide text beside a SMILES is read from it. * marks the point of attachment. ξ: configuration not given here. 4Abz = Nc1ccc(C(=O)O)cc1; CO = O=C([*:1])[*:2]; ξV = CC(C)C(N)C(=O)O; CF3 = FC(F)(F)*
Recorded % inhibition of lung hemorrhage by entry
Give just the numeric value; % need not be written.

A selection of reference data follows.
compound | unit of measure | % inhibition of lung hemorrhage
CC(C)C(NC(=O)[C@@H]1CCCN1C(=O)[C@@H](NC(=O)c1ccc(C(=O)NCCN2CCOCC2)cc1)C(C)C)C(=O)C(F)(F)F.Cl (stereo partly shown) [实施例21] | % | 66.3
CC(C)C(NC(=O)[C@@H]1CCCN1C(=O)[C@@H](NC(=O)Nc1ccc(C(=O)NCC(=O)O)cc1)C(C)C)C(=O)C(F)(F)F (stereo partly drawn) [实施例23] ({Gly-4Abz-CO}-Val-Pro-[ξV]-CF3) | % | 75.6
CC(C)C(NC(=O)CN(C(=O)[C@@H](NC(=O)c1ccc(C(=O)NCCN2CCOCC2)cc1)C(C)C)C1Cc2ccccc2C1)C(=O)C(F)(F)F.Cl (stereo partly shown) [实施例29] | % | 43.2

Next compound, % inhibition of lung hemorrhage to be filled in.
Incoming: For human sputum elastase-induced lung hemorrhage in hamsters, give % inhibition of lung hemorrhage of the listed compound: CC(C)C(NC(=O)CN(C(=O)[C@@H](NC(=O)c1ccc(C(=O)NCC(=O)[O-])cc1)C(C)C)C1Cc2ccccc2C1)C(=O)C(F)(F)F.[Na+] (stereo partly shown) [实施例27]
Outgoing: 66.9

====

- Tested on: human sputum elastase-induced lung hemorrhage in hamsters
- assay: Elastase-induced lung hemorrhage (hemoglobin in BAL cells, OD 541 nm)
- Assay type: in vivo, hamster
- measurement setup: intratracheal, 5 min pre-dose
Numbered stars: 1 amine (or outer) side, 2 acyl side, 3 side chain; on linkers, the order of the positions; unused ones are H or OH. Square brackets hold non-standard residues; d marks the D form. Peptide text beside a SMILES is read from it. * marks the point of attachment. ξ: configuration not given here. 4Abz = Nc1ccc(C(=O)O)cc1; CO = O=C([*:1])[*:2]; ξV = CC(C)C(N)C(=O)O; CF3 = FC(F)(F)*
Entries and their ED50, inhibition of lung hemorrhage values follow.
# value in μg/位点; strip the unit string

compound | unit of measure | value
CC(C)C(NC(=O)CN(C(=O)[C@@H](NC(=O)c1ccc(C(=O)NCCN2CCOCC2)cc1)C(C)C)C1Cc2ccccc2C1)C(=O)C(F)(F)F.Cl (stereo partly shown) [实施例29] | μg/位点 | 17.9
CC(C)C(NC(=O)[C@@H]1CCCN1C(=O)[C@@H](NC(=O)Nc1ccc(C(=O)NCC(=O)O)cc1)C(C)C)C(=O)C(F)(F)F (stereo partly drawn) [实施例23] ({Gly-4Abz-CO}-Val-Pro-[ξV]-CF3) | μg/位点 | 3.2
CC(C)C(NC(=O)[C@@H]1CCCN1C(=O)[C@@H](NC(=O)c1ccc(C(=O)NCCN2CCOCC2)cc1)C(C)C)C(=O)C(F)(F)F.Cl (stereo partly shown) [实施例21] | μg/位点 | 4.5

Incoming: Fill in: ED50, inhibition of lung hemorrhage on human sputum elastase-induced lung hemorrhage in hamsters, entry CC(C)C(NC(=O)CN(C(=O)[C@@H](NC(=O)c1ccc(C(=O)NCC(=O)[O-])cc1)C(C)C)C1Cc2ccccc2C1)C(=O)C(F)(F)F.[Na+] (stereo partly shown) [实施例27]
Outgoing: 3.7

====

- Tested on: human sputum elastase-induced lung hemorrhage in hamsters
- assay: Elastase-induced lung hemorrhage (hemoglobin in BAL cells, OD 541 nm)
- Format: in vivo, hamster
- measurement setup: 10 μg/site intratracheal, 5 min before elastase; BAL 3 h later
Numbered stars: 1 amine (or outer) side, 2 acyl side, 3 side chain; on linkers, the order of the positions; unused ones are H or OH. Square brackets hold non-standard residues; d marks the D form. Peptide text beside a SMILES is read from it. * marks the point of attachment. ξ: configuration not given here. 4Abz = Nc1ccc(C(=O)O)cc1; CO = O=C([*:1])[*:2]; ξV = CC(C)C(N)C(=O)O; CF3 = FC(F)(F)*
Measured Hemorrhage (OD541nm), listed per entry.
The answer is to be given in OD541nm; state only the numeric part.

Look over these answered cases.
molecule | Hemorrhage (OD541nm)
CC(C)C(NC(=O)[C@@H]1CCCN1C(=O)[C@@H](NC(=O)c1ccc(C(=O)NCCN2CCOCC2)cc1)C(C)C)C(=O)C(F)(F)F.Cl (stereo partly shown) [实施例21] | 5.372
CC(C)C(NC(=O)CN(C(=O)[C@@H](NC(=O)c1ccc(C(=O)NCCN2CCOCC2)cc1)C(C)C)C1Cc2ccccc2C1)C(=O)C(F)(F)F.Cl (stereo partly shown) [实施例29] | 8.155
CC(C)C(NC(=O)CN(C(=O)[C@@H](NC(=O)c1ccc(C(=O)NCC(=O)[O-])cc1)C(C)C)C1Cc2ccccc2C1)C(=O)C(F)(F)F.[Na+] (stereo partly shown) [实施例27] | 4.878

We now examine a further molecule.
Incoming: Report Hemorrhage (OD541nm), nothing else, for this molecule: CC(C)C(NC(=O)[C@@H]1CCCN1C(=O)[C@@H](NC(=O)Nc1ccc(C(=O)NCC(=O)O)cc1)C(C)C)C(=O)C(F)(F)F (stereo partly drawn) [实施例23] ({Gly-4Abz-CO}-Val-Pro-[ξV]-CF3)
Outgoing: 3.412

The measured values listed here are drawn from patent CN1063108A.
